Tested on: MS2 coat protein
assayInfo: apparent KD of MS2 coat protein; designed switch direction (-1 OFF switch, 1 ON switch): 1; higher = weaker reporter binding
measurementParameters: input ligand: FMN 200 uM
# cutoff 60 nM applies to apparent KD of MS2 coat protein; >= gives class 1, < gives class 0

Before answering, review these 3 worked examples.
residueSequence	label
GCUCGAUGAGCGAUUUACAUGAGGAUCACCCAUGUACGUGGGCAGGAUAUUUACGUGCGGUGUGUAGAGAAGGGCCCAUCGAGC [SameState NG3 #71] (Eterna round: R96, puzzle: Same State NG 3)	class 1
AGAUGUUAAUUAGGAUAUGGUCACAUGAGGAUCACCCAUGUAACGAAGAUACGAUGUGGUCAAGACUAGAAGGGAUCGCUAACA [SameState NG2 #73] (Eterna round: R96, puzzle: Same State NG 2)	class 0
UGGUACAUGGGAGGAUAUCAUGUAGAAACAUGAGGAUCACCCAUGUUGAUGGAGACAUCGGAGAUUGAGAAGGCCCAUGUACCU [JL SSNG1 3.57] (Eterna round: R96, puzzle: Same State NG 2)	class 0

Query: Determine whether measured apparent KD of MS2 coat protein meets or exceeds 60 nM for GCUCGAUGUGUUGUCUACAUGAGGAUCACCCAUGUAGGUGCGGAGGAUAUCUACGUGCUUUAUGUAGAGAAGGUCGUAUCGAGC [SameState NG3 #86] (Eterna round: R96, puzzle: Same State NG 3)
Reply: class 0

Query: State whether the measured apparent KD of MS2 coat protein reaches 60 nM, counting equality as reaching it, for GGCCUGAGUCAAGGAUAUGCUACCGUUUCGGUAGCAGAAGGUGAUCACAUGAGGAUCACCCAUGUUUACGCGAAGACGCGCGCC (Eterna round: R96, puzzle: Same State NG 1)
Reply: class 1

* * *

Recorded apparent KD of K4 kissing-loop reporter values for a group of sequences are listed next.
Test system: K4 kissing-loop RNA reporter
assayInfo: apparent KD of K4 kissing-loop reporter; higher = weaker reporter binding
measurementParameters: Eterna round: R107; input ligand: theophylline 20 uM
Reply numerically in nM, unit not repeated.

Below: 2 sequences and their reported apparent KD of K4 kissing-loop reporter.
residueSequence	units	apparent KD of K4 kissing-loop reporter
GAGGCCAGACUGAGUGAUGUUUAGUAUGAUACCAGUAUCGAAGGAUACCCUUGGCAGCAUGCCACGGCCUCGGCGGGAAACCGCC	nM	714
UUAUAUAUAUCAGAUACCAGUAUAAUGGAAACAAAUUAUGUUAUGAGUGAUGUUCAUGUAUGCCCUUGGCAGCUGGUAUGGGUUU [KL-XTheo-B20]	nM	439

Query: So what's the measured apparent KD of K4 kissing-loop reporter for this one? UGAUAGGACAGAAGGAGCGGUAGUGAUGUUACCAAAAGGAUAAGGUGUCAAAAGACACCCUACCAGGUAGGUCGCUGUCCUAUCU
Reply: 85.1

Query: Could you tell me which apparent KD of K4 kissing-loop reporter is on file for GGAGAGGUCUUGUUUGGAUGUGUUUAAUGGCGAGGACCGGUACGGCCGCCACUCGGGUGAUGUUAGUGAUGUUGAUGUAGUGAUG [wzwmullin] ?
Reply: 149

* * *

Tested on: K4 kissing-loop RNA reporter
assayInfo: apparent KD of K4 kissing-loop reporter; higher = weaker reporter binding
measurementParameters: Eterna round: R107; input ligand: none
observationType: apparent KD of K4 kissing-loop reporter (nM)
Number only, in nM; omit the unit.

Look over these answered cases.
residueSequence	result
UGUAAUUCGGCGGCCGCCACUGACCAUAGCCUUCGAUGGCCAGUGAUGUUGGCCUCUGGCUCUAACAGGACCGGGCCGAAUUGCG [Sotetiqu]	178
GGUAGCAUGGCGGCCGCCACUUACACCACGGCCCUUCUAGUGAUGUUAGAGUGGAUUAUUCCGUUAAGGACCGGGCCAUGCUACC	745

Below: the item to evaluate.
Query: Item: UUUUGGUACUGAGGAUAUUCGACGAAAUAUAGUGAUGUUAUAUAAGGAGGAGGAGGGUGGGAGGAAGGAGAAGGCAGAAGAGGAG [#06 K4 FMN B Exclusion] Test system: K4 kissing-loop RNA reporter Read-out: apparent KD of K4 kissing-loop reporter Value: ?
Reply: 238

* * *

Tested on: K4 kissing-loop RNA reporter;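 further: bound reporter read as fluorescence of individual clusters on recovered sequencing chips by microscopy, with normalized cluster intensities fitted with a binding model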
assayInfo: apparent KD of K4 kissing-loop reporter; higher = weaker reporter binding
measurementParameters: Eterna round: R107; input ligand: none
observationType: apparent KD of K4 kissing-loop reporter (nM)
Give just the numeric value; nM need not be written.

residueSequence	apparent KD of K4 kissing-loop reporter, nM
GGAUGCAUAGUAGAUACCAGCAAGCUCGGAUAGUGAUGUUGUUCGCAGUCAUUUCGGUAGUGCCCUUGGCAGCUAGACGCCCGAU [theeternabot_exclusion_KL_Theo_B_36]	104
UGGACAUGACUCGAUAAGAGUCAAUGGGAUACCAGUGACGAAAGUCACCCUUGGCAGCUCAACUGCCAGUGAUGUUGGUAGUCCA [Astros-Elo-mod#2]	224
AUUUUUUACAGAAGGAGCGUGUUUUAAUAAUCAUGGUGCUUAGCGAGUGAUGUUCGCUUUACACAGGUAGGUCGCUGUUUAUUUA [JR_Nu_ExcArginiB_Sub030]	127
AGGCACGAGCAAGGAUAUUGAGUAGAGUGAUGUUCUGCCUGGGUUGGCUCGAAAGAGCCUUCUCAGCGAGAAGGUGCUCGUGCCU [#2 Same State - FMN A Attempt #22 (HarryS)]	616
GGCAGUGAUGUUGCCAGUGGCAGAUGCGAAGGAGCGUGGUGAGACACAGGUAGGUCGCGCAUUGAAAUUGCUGUCACUAAAAUGC [#3]	326

Proceed to the following item.
Query: What reported apparent KD of K4 kissing-loop reporter corresponds to GGAGGAGAAUAUGAUACCAGCAGAGAGAGAGAGGAAGUAUAGUGAUGUUAUAUGUGAGAAUGCCCUUGGCAGCAUAAGAAGAAGG [whbob_SS_Theo_B_sa87] on K4 kissing-loop RNA reporter?
Reply: 156

* * *

Test system: MS2 coat protein
assayInfo: apparent KD of MS2 coat protein; designed switch direction (-1 OFF switch, 1 ON switch): -1; higher = weaker reporter binding
measurementParameters: input ligand: FMN 200 uM
observationType: apparent KD of MS2 coat protein

residueSequence	result
GUUCUUCCUGUAAGGAUAUCCAUGUGUCGGUUUAUGGAGAAGGUACAUGAGGAUCACCCAUGUCACCCGCGUUA (Eterna round: R97, puzzle: Brourd's mod of Exclusion 4)	45.9 nM
AGCUGUGGCCGAGGAUAUACACAUGAGGAUCACCCAUGUAGGCGCGGAUACGCGCUAAAAUAAAUGUAGAAGGCGGUCUCAGCA [Eli eng2 - 055] (Eterna round: R96, puzzle: Exclusion NG 2)	7.06 nM
CCUCUACAUGAGGAUCACCCAUGUGAGGAUAUCCUGCGAGGAUCAAAAGAUCCUCGUGGGAGAAGGCAUAUGUA [Omei Ex1 A2] (Eterna round: R97, puzzle: Exclusion 1)	30.6 nM
AGCCACAGAGGAUAUACAUACAUCCAGUAGUUGAGAAGACUACAUGAGGAUCACCCAUGUAGAAGGCUGUGGCA [Omei Ex2 BD B3] (Eterna round: R97, puzzle: Exclusion 2)	95.5 nM

Query: Give its apparent KD of MS2 coat protein value. Item: CCCGUCGAUGUAGGAUAUGCCCGGGUCUCCCGGGCAGAAGGACAUGAGGAUCACCCAUGUUCGUGAGGAUCACCCAUGAAUGGG [Double but mutated MS2] (Eterna round: R96, puzzle: Exclusion NG 1)
Reply: 15 nM

* * *

Below, each entry is listed with its recorded apparent KD of MS2 coat protein.
Tested on: MS2 coat protein
assayInfo: apparent KD of MS2 coat protein; designed switch direction (-1 OFF switch, 1 ON switch): -1; higher = weaker reporter binding
measurementParameters: Eterna round: R95; input ligand: none
Quick note: give the figure in nM, leave out the unit.

# example entries with known answers
residueSequence	apparent KD of MS2 coat protein (nM)
UCUAGCUUUUUGCGUCAAGCAUUGAAGUCUGUGAUCGUUACAUGAGGAUCACCCAUGUAUGUUUUAUGUCGUCUUGU [JR_SV3TOV2_Sub099] (puzzle: Sensor v3, turn-off variant 2)	43.9
GGCCCUAAGGUCAGAUUCACAAGCUUUUUGCUCGUUUUAACAUGAGGAUCACCCAUGUCUAGUGGAUUUGAUCCUUA [Sensor v3, turn-off variant 2 (MOD of Indiso v.7)] (puzzle: Sensor v3, turn-off variant 2)	18.9
AAUAAGUGAGGAUAUCCAAUAAUAAAUAAAAUAAUAAAUAAGGAGAAGGCACAUGAGGAUCACCCAUGUAAUAA [JMF's solution 2] (puzzle: Exclusion 4)	15.7
UCAUGGUAGCAGGAUAUGCUAGAAAUUUUUUAUGCAGAAGGGCUUACAUGAGGAUCACCCAUGUGUUAGGUCUA [JR_E6_Sub070] (puzzle: Exclusion 6)	48.5
GAGGAGCAAGGAUAUACGAGGAGAGGGAAGAGAGGAGAGAGACAUGAGGAUCACCCAUGUAGAAGGUGCAAGGG [JR_Exclu2_Sub093] (puzzle: Exclusion 2)	180

Query: Field request: apparent KD of MS2 coat protein | item: UUAGGCGUCUUUGCUCGUCUUAUUUGGAGAUGACUGUUAACAUGAGGAUCACCCAUGUGUGUGGGAGCUUUGCAGUU [JR_SV3TOV2_Sub022] (puzzle: Sensor v3, turn-off variant 2)
Reply: 271

Query: Which apparent KD of MS2 coat protein reading was recorded for the sequence ACAAGCUUUUUGCAUCAAGCAUUAAAGUCUGUGAUCGUAACAUGAGGAUCACCCAUGUAAGUUUUAUGACGUCUUAU [JR_SV3TOV2_Sub096] (puzzle: Sensor v3, turn-off variant 2) ?
Reply: 25.3

Query: Would you mind telling me what apparent KD of MS2 coat protein value was observed for AGCCCUUGUGUCAGGAUAUGCAUCCUUAAAGGACGGCAGAAGGGACAUGAGGAUCACCCAUGUAAAUAGAAAUU [Onatatge] (puzzle: Brourd's mod of Exclusion 4) ?
Reply: 141

Query: apparent KD of MS2 coat protein for ACAAGCUUUUUGCUCGGGUACAUGAGGAUCACCCAUGUUUGGGUUUAUUGAGGUUGUGUUGUCGUGCGCUGCAGGUU [JR_SV3TOV1_Sub076] (puzzle: Sensor v3, turn-off variant 1) ?
Reply: 232

Query: Given the entry GAUUACUGCAAGCUUAGGGACAUGAGGAUCACCCAUGUUCGUCUUAUUGAUCUAGGUACGCUGACGUACCUAGAUCU [JL-sv1-2.29 Brourd mod] (puzzle: Sensor v3, turn-off variant 1) , report its measured apparent KD of MS2 coat protein.
Reply: 13.8
